Numbers sourced from BindingDB's records for doi:10.7270/Q2QF8R8B.

SYSTEM NAME: UniProt:P08311
MEASURED ENDPOINT: IC50 (µM)

IC50 reading for `Cc1ccsc1C=c1sc2ncnn2c1=O` : 4.66

[A] Cc1nn(Cc2ccc(Cl)c(Cl)c2)c(C)c1NC(=O)c1cc(-c2ccc3c(c2)OCO3)on1
[B] CCC(=O)Nc1cccc(-c2nc3ccccc3c(=O)o2)c1 [MLS000090237]
[C] CSc1nc(-c2ccco2)nn1C(=O)c1cccs1
[D] COc1ccc(C(=O)n2nc(-c3ccc(Cl)cc3)nc2N)cc1OC [SMR000074176]
Query: Order the records by IC50, with each subsequent value no larger than the one before. Please, when replying, give the labels in the order that was requested.
Result: D, A, B, C

====

SYSTEM NAME: Cathepsin G (Homo sapiens, UniProt P08311)
Sequence (P08311 whole entry): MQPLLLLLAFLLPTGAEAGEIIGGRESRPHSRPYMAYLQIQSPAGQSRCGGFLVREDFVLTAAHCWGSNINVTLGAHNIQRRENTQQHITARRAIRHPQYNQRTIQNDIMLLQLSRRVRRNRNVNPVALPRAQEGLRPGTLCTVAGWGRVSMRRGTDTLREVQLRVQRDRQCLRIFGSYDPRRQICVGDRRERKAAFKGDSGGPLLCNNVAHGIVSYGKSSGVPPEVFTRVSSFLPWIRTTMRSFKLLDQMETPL
pIC50: −log10 of the molar value.
MEASURED ENDPOINT: pIC50

pIC50 reading for `Cc1ccc(S(=O)(=O)n2nc(OC(=O)c3cccs3)cc2N)cc1` : 5.09

pIC50 reading for Cc1nn(C(=O)c2ccccc2)c2c1C(=O)CC(C)(C)C2 [SMR000069174] : 4.97

pIC50 reading for COc1ccc2c(c1)CCc1c(C(=O)Nc3ccc(OC)c(OC)c3)noc1-2 [MLS000087452] : 4.84

[P] CC(C)[C@H](NC(=O)OC(C)(C)C)c1nnc(S(=O)(=O)Cc2c(F)cccc2Cl)o1 [SMR000044502]
[Q] Nc1nc(C(=O)N2CCOCC2)nn1C(=O)c1ccc(Cl)cc1
[R] COc1ccc2c(c1)CCc1c(C(=O)NCc3ccco3)noc1-2 [MLS000087436]
[S] O=C(c1ccc2c(c1)OCO2)n1nnc2ccccc21
Query: Order the records by pIC50, with each subsequent value no larger than the one before. Please, when replying, give the labels in the order that was requested.
Result: S, R, Q, P

====

Reported IC50 values follow for various molecules
SYSTEM NAME: Cathepsin G (Homo sapiens, UniProt P08311)
ASSAY DETAILS: IC50 of CTSG protease blockers – biochemical, confirmation, dose response (AID 832)

IC50 reading for `COc1ccc(CNC(=O)c2cc(-c3ccc(OC)c(OC)c3)on2)cc1` : > 50 µM

IC50 reading for `CCOC(=O)c1ccc(NC(=O)CS(=O)(=O)c2cn(CC)c3ccccc23)cc1` : > 50 µM

Now consider a different molecule.
IC50 reading for `CCN1C(=O)c2ccc(-c3nc4ccccc4c(=O)o3)cc2C1=O` : > 50 µM
